Listed molecules paired with reported tissue uptake at 4 h
experimentDescription: In vivo biodistribution and clearance in PC-3 tumor-bearing mice
statedConditions: male, NMRI-Foxn1 nu/nu, mouse, liver, iv, total radioactivity; 4 h p.i., i.v.; read-out: % uptake liver

[
  {
    "molecule": "CC(C)C[C@H](NC(=O)C[C@H](O)[C@H](CC(C)C)NC(=O)[C@H](Cc1c[nH]cn1)NC(=O)CNC(=O)[C@@H](NC(=O)[C@H](C)NC(=O)[C@H](Cc1c[nH]c2ccccc12)NC(=O)[C@H](CCC(N)=O)NC(=O)[C@@H](Cc1ccccc1)NC(=O)CN1CCC(NC(=O)CN2CCN(CC(=O)O)CCN(CC(=O)O)CCN(CC(=O)O)CC2)CC1)C(C)C)C(N)=O [[^177Lu]Lu-RM2, metal not drawn]",
    "tissue uptake at 4 h (%ID/g)": 0.09
  },
  {
    "molecule": "CC(C)CC(CC(C)C)NC(=O)[C@H](Cc1cnc[nH]1)NC(=O)CNC(=O)[C@@H](NC(=O)[C@H](C)NC(=O)[C@H](Cc1c[nH]c2ccccc12)NC(=O)[C@H](CCC(N)=O)NC(=O)[C@@H](Cc1ccccc1)NC(=O)COCC(=O)Nc1ccc(CNC(=O)CN2CCN(CC(=O)O)CCN(CC(=O)O)CCN(CC(=O)O)CC2)cc1)C(C)C [[^177Lu]Lu-NeoB, metal not drawn]",
    "tissue uptake at 4 h (%ID/g)": 0.54
  }
]
